Target: ROS1 (Homo sapiens, UniProt P08922)
Construct: purchased Carna Biosciences 08-163
Sequence (P08922 28-2347): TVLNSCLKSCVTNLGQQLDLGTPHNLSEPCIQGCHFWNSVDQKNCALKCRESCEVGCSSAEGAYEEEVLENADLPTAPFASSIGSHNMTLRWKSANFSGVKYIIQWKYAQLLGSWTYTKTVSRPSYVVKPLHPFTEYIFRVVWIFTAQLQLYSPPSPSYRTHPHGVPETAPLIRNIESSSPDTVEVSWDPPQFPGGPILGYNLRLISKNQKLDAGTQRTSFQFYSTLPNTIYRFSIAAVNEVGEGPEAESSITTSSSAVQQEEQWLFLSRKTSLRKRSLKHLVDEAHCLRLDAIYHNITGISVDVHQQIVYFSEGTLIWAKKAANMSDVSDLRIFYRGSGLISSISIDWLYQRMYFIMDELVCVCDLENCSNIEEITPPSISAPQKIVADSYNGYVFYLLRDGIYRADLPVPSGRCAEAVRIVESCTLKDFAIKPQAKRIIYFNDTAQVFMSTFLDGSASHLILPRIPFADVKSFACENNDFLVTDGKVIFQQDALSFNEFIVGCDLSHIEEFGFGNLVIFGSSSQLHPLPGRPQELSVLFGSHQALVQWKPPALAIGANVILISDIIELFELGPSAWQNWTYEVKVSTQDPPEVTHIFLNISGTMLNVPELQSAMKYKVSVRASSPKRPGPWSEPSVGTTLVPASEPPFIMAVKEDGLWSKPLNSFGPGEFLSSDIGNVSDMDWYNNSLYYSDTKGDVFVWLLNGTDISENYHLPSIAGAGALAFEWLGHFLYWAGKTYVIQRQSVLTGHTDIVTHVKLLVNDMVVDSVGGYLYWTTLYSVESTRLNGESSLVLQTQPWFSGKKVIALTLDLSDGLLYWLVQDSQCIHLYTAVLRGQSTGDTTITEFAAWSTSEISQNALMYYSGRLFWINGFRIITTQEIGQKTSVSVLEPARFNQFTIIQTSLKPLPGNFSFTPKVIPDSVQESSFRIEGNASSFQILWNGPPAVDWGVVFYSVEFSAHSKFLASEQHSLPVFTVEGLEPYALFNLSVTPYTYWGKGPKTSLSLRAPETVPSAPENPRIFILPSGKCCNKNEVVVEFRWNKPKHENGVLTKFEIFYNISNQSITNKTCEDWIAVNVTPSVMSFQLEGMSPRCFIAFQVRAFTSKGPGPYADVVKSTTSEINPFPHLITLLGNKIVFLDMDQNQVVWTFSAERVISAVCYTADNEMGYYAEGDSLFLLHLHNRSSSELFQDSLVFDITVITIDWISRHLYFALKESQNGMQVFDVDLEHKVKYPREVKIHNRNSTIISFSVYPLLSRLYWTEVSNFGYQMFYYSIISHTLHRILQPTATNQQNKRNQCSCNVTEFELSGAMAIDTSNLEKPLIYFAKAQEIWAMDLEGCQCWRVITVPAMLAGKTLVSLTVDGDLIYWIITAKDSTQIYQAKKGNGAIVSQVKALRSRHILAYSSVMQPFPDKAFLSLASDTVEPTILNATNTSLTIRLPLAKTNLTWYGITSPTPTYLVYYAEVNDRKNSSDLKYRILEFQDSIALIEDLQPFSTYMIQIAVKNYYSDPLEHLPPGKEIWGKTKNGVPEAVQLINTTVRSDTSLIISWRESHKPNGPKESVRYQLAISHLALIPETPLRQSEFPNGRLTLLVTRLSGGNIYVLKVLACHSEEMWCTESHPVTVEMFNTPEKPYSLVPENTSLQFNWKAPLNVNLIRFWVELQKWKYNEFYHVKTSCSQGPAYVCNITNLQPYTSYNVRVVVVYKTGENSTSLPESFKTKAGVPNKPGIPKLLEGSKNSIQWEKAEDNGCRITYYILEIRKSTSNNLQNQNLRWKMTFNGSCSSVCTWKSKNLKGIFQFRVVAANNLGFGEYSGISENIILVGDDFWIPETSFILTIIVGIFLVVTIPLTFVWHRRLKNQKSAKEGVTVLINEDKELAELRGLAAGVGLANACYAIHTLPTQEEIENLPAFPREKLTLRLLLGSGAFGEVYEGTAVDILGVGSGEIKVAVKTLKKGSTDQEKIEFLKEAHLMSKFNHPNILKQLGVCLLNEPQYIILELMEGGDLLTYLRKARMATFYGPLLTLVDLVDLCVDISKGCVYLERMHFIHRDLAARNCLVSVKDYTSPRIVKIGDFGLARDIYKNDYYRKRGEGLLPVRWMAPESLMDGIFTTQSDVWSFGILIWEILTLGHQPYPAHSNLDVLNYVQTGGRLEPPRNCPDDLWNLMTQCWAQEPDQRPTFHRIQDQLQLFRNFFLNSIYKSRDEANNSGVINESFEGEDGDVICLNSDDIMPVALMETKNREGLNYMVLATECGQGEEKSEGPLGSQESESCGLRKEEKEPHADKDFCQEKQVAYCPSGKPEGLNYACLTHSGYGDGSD
Experiment: ROS1 kinase inhibitory activity evaluation (mobility shift, EZ Reader II)
Type: biochemical
Conditions: ROS1 25 pg/μL, FL-Peptide 22 substrate, three separate measurements
Quantity measured: IC50

Examples from the recorded data:
| Compound | Quantity measured | Experimental value |
| --- | --- | --- |
| CC(Oc1ccc2ncc(-c3ccc(N4C[C@@H](N)CC4=O)cc3)n2n1)c1cc(F)ccc1F (stereo partly shown) | IC50 | < 1 nM |
| CNCCCOc1cccc(-c2cnc3ccc(N[C@H](C)c4cccc(F)c4)nn23)c1 | IC50 | 1 to 10 nM |
| CN(Cc1cncc(F)c1)c1ccc2ncc(-c3ccc(N4CC(C)(N)CC4=O)cc3)n2n1 (single isomer, unassigned) [Example 124] | IC50 | 1 to 10 nM |
| CN(Cc1cccc(F)c1)c1ccc2ncc(-c3ccc(N4C[C@@H](N)CC4=O)cc3)n2n1 | IC50 | < 1 nM |
| CN[C@H]1CC(=O)N(c2ccc(-c3cnc4ccc(O[C@H](C)c5cccc(F)c5)nn34)cc2)C1 | IC50 | < 1 nM |
| C[C@@H](Nc1ccc2ncc(-c3ccc(OC[C@@H](N)[C@@H](C)O)cc3)n2n1)c1cccc(F)c1 | IC50 | < 1 nM |
| C[C@@H](Nc1ccc2ncc(-c3ccc(OCCN(C)C)nc3)n2n1)c1cccc(F)c1 | IC50 | 1 to 10 nM |
| C[C@@H](Nc1ccc2ncc(-c3ccc(F)c(OC[C@@H]4CCN4)c3)n2n1)c1cccc(F)c1 | IC50 | 1 to 10 nM |
| CNCCOc1ccc(-c2cnc3ccc(N[C@H](C)c4cccc(F)c4)nn23)cn1 | IC50 | < 1 nM |
| CN(Cc1cncc(F)c1)c1ccc2ncc(-c3ccc(N4CC(C)(N)CC4=O)cc3)n2n1 (stereo not shown) [Example 119] | IC50 | 1 to 10 nM |

Now for another entry.
Problem: // fetch IC50 given entry C[C@@H](Nc1ccc2ncc(-c3ccc(OCC4CNC4)cc3)n2n1)c1cccc(F)c1
Solution: 1 to 10 nM

// provenance: patent US9751887B2
